The measurements presented in this section are drawn from patent US10517889B2.

system: human SMAD7 mRNA; assay: Antisense inhibition of human SMAD7 mRNA expression in Hep3B cells by 3-10-3 cEt gapmers, 10,000 nM, electroporation (Example 2); format: cell-based; details: SMAD7 mRNA, Hep3B cells, electroporation with 10,000 nM antisense oligonucleotide, approximately 24 hours, primer probe set RTS5062, relative to untreated control cells
Strand notation (5' to 3'): a small letter for the sugar, then the base; units joined by * are phosphorothioate-linked, units joined directly phosphodiester-linked; [ ] holds rarer units or linkages, { } end groups; capitals alone tell only the bases. k = constrained ethyl (cEt); [5mC] = 5-methylcytosine; d = 2'-deoxy (DNA)
quantity: % Inhibition (%)
All answers are understood in %, so give the number only.

Print human SMAD7 mRNA % Inhibition for 829959 (kT*kT*kA*dT*dT*dA*dA*dT*dG*dG*dT*d[5mC]*dT*kG*k[5mC]*kT; antisense) [compound 829959] .
12

Write % Inhibition of 829914 (antisense kA*k[5mC]*k[5mC]*dT*dT*dG*dG*dG*dT*dT*dA*dT*dG*kA*k[5mC]*kG) [compound 829914] ; system used: human SMAD7 mRNA
35

Give % Inhibition for this entry on human SMAD7 mRNA: 829981 (kG*kT*kG*dA*dT*dT*dG*d[5mC]*d[5mC]*dT*dT*dG*dA*kT*kA*kT; antisense) [compound 829981]
14

Enter recorded % Inhibition with human SMAD7 mRNA for 829903 (antisense k[5mC]*kT*kG*dT*dT*dG*dA*dA*dG*dA*dT*dG*dA*k[5mC]*k[5mC]*kT) [compound 829903] here.
25

State % Inhibition on human SMAD7 mRNA. Entry: 829919 (antisense k[5mC]*kG*kA*dG*dT*dG*dT*dA*dT*dG*dA*dG*dT*kT*kG*kT) [compound 829919]
47

Report % Inhibition under test system human SMAD7 mRNA for 829843 (antisense kG*kA*kA*dT*dT*dG*dA*dG*d[5mC]*dT*dG*dT*d[5mC]*k[5mC]*kG*kA) [compound 829843] .
49

Answer briefly: % Inhibition recorded on human SMAD7 mRNA for 829863 (antisense kA*k[5mC]*kT*dG*d[5mC]*dT*dG*d[5mC]*dG*dG*dT*dT*dG*kT*kA*k[5mC]) [compound 829863]
31

Enter recorded % Inhibition with human SMAD7 mRNA for 829846 (antisense kG*kT*k[5mC]*d[5mC]*dG*dA*dA*dT*dT*dG*dA*dG*d[5mC]*kT*kG*kT) [compound 829846] here.
29

State the measured % Inhibition (human SMAD7 mRNA) of 829956 (k[5mC]*k[5mC]*kT*dT*dG*dT*d[5mC]*dA*d[5mC]*d[5mC]*d[5mC]*dG*dT*k[5mC]*kT*kG; antisense) [compound 829956]
66

State, for human SMAD7 mRNA, measured % Inhibition of the substance listed here: 829873 (antisense kT*kT*kG*dT*d[5mC]*d[5mC]*dA*dG*dT*dG*dT*dG*dG*k[5mC]*kG*kG) [compound 829873]
52

Determine reported % Inhibition for 829882 (antisense kA*kG*kG*d[5mC]*dT*dG*dT*dA*d[5mC]*dG*d[5mC]*d[5mC]*dT*kT*k[5mC]*kT) [compound 829882] ; test system: human SMAD7 mRNA.
3

For human SMAD7 mRNA, give the measured % Inhibition of the entry 829986 (k[5mC]*kG*kA*dG*dG*d[5mC]*dG*dG*dT*dG*dA*dT*dT*kG*k[5mC]*k[5mC]; antisense) [compound 829986]
28

Look up and report measured % Inhibition (human SMAD7 mRNA) for the following substance: 829947 (kG*kG*kG*d[5mC]*dA*dG*d[5mC]*d[5mC]*dA*dG*dT*dT*dA*kA*kT*k[5mC]; antisense) [compound 829947]
31
